- Tested system: hKOR (Homo sapiens, UniProt P41145)
- Sequence (P41145 whole entry): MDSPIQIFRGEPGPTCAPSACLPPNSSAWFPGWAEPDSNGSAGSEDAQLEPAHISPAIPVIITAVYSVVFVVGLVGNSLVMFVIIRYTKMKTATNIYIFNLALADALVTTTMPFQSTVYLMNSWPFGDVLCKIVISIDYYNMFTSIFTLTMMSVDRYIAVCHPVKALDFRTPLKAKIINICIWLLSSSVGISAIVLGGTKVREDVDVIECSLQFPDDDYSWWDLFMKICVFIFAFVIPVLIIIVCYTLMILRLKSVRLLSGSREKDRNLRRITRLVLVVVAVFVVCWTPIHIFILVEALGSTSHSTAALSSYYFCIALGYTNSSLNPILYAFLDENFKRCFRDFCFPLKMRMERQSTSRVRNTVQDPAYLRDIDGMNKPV
- Experimental protocol: Radioligand binding assay (Eurofins Cerep), [3H]U69,593 displacement
- Test conditions: Table 3-2; 3 independent experiments; read-out: Ki (nM ± SEM) KOR
# maps each entry to its Ki
Could you give me the number in nM? Just the number is fine.

Data point: CO/C=C(/C(=O)OC)C1CCN(CCc2c[nH]c3ccccc23)CC1 ; Ki = 3670

Ki in this record for COC=C(C(=O)OC)C1CCN(CCc2c[nH]c3cc(OC)ccc23)CC1 : 9450

Ki for COC(=O)CC1CCN(CCc2c[nH]c3ccc(OC)cc23)CC1 is 8070

Notebook: COC=C(C(=O)OC)C1CCN(CCc2c[nH]c3ccc(OC)cc23)CC1 , Ki read as 1300

All figures here come from patent US20260234147A1.
